# System: M14 melanoma
# MEASUREMENT_NOTES: NCI tumour cell line growth inhibition, 48 h
# binarize TGI: threshold 10 µM inclusive, high side 1 (yes), low side 0 (no)

Some entries whose results are on file:
C=C(C)[C@@H]1CC[C@]2(C(=O)NCCNCCNCCN)CC[C@]3(C)[C@H](CC[C@@H]4[C@@]5(C)CCC(=O)C(C)(C)[C@@H]5CC[C@]43C)[C@@H]12 | 1 (yes)
COc1cc2c(c(OC)c1OC)-c1ccc(SC)c(=O)cc1C(CC(=O)Oc1cccc(C#N)c1)C2 (stereo unspecified) | 1 (yes)
O=C1OCC2=C1C(c1cccc(C(F)(F)F)c1)c1cc3c(cc1N2CCO)CCC3 (stereo unspecified) | 0 (no)

Data request: Exam item: decide whether the reported TGI for `CN1C(=O)C(c2c[nH]c3ccccc23)=C(c2c(-c3c[nH]c4ccccc34)[nH]c3ccccc23)C1=O` is at least 10 µM.
Data returned: 0 (no)

Data request: Exam item: decide whether the reported TGI for c1ccc(C2=C(c3ccccc3)P(c3ccccc3)C2)cc1 (stereo unspecified) is at least 10 µM.
Data returned: 1 (yes)

Data request: Exam item: decide whether the reported TGI for `COc1ccc(-n2c3c(c4c(CN(C)C)c(O)c(C)cc42)CCc2ccccc2C3=O)cc1` is at least 10 µM.
Data returned: 1 (yes)

Data request: Exam item: decide whether the reported TGI for `N=C(N)c1ccc(-c2ccc(-c3ccc(F)cc3)o2)o1` is at least 10 µM.
Data returned: 0 (no)

Data request: Exam item: decide whether the reported TGI for COc1cc(C2S/C(=C/c3ccccc3)C(=O)N2c2cccc([N+](=O)[O-])c2)cc(OC)c1OC (stereo unspecified) is at least 10 µM.
Data returned: 1 (yes)

###

# Test system: HCT-116 colon
# MEASUREMENT_NOTES: NCI tumour cell line growth inhibition, 48 h
Hi there, I'd appreciate the recorded TGI for every entry that follows.

COc1ccc(C2c3cc4c(cc3OC(N3CCCCC3)C2C)OCO4)cc1 (stereo unspecified) | > 100 µM
O=C1C(N=Nc2ccc(-c3nc4ccccc4[nH]3)cc2)NC(=S)N1c1ccccc1 (stereo unspecified) | > 100 µM
COc1ccc(/C=N/n2c(Cc3ccc(Cl)cc3)n[nH]c2=O)c(OC)c1 | > 100 µM
O=C1C[C@H](c2ccccc2)C2(C(=O)c3ccccc3C2=O)[C@H](c2ccccc2)C1 | > 100 µM
Cc1cc(C)c2c(N)c3cccc(C)c3nc2n1 | 3.85 µM

Data request: Test system HCT-116 colon; read-out TGI; what value for `CCOC(=O)/C(=C\c1ccc(F)cc1)C(C)=O` ?
Data returned: 91.8 µM

###

# Tested on: SNB-78 CNS
# MEASUREMENT_NOTES: NCI tumour cell line growth inhibition, 48 h
MEASURE: TGI

Completed entries (count: 6):
COc1ccc(C2=CN3CCC[C@H]3C=C2c2cc(O)c(OC)c(OC)c2)cc1OC | 0.0391 µM
Cc1c(O)c(=O)ccn1CCO | > 100 µM
Cc1cc2c(cc1Br)C1(C)CCC(C)C1(C)O2 (configuration not stated) | > 100 µM
CC1=CC2CC(C)C1(C)CCc1ccoc12 (configuration not stated) | > 100 µM
CN(CCN(C)C(=O)CCOS(C)(=O)=O)C(=O)CCOS(C)(=O)=O | > 100 µM
CC(=O)O[C@H]1CC[C@@]2(C)C(=CC[C@@H]3C2CC[C@]2(C)Nc4[nH]ncc4CC32)C1 (some centres not stated) | > 100 µM

Data request: Please look up its TGI: COc1ccc2c(c1)CCCC1C3=NCCC3(C)CSC21 (configuration not stated)
Data returned: > 100 µM

###

# System: OVCAR-3 ovarian
# MEASUREMENT_NOTES: NCI tumour cell line growth inhibition, 48 h
Hi there, I'd appreciate the recorded TGI for every entry that follows.
Numbers only, in µM.

Completed entries (count: 6):
CC1(C)Cc2c(Br)c(Br)c(Br)c(OCC(O)CN3CCOCC3)c2O1 (stereo unspecified) | 28.5
O=C1CC/C(=C\COc2ccc3ccc(=O)oc3c2)O1 | 22
Oc1ccc(CN(Cc2ccc(C(F)(F)F)cc2)Cc2ccc(O)c3ncccc23)c2cccnc12 | 60.4
C[C@H](CCC1=NCCN1)[C@H]1CC[C@H]2[C@@H]3CC[C@@H]4C[C@H](O)CC[C@]4(C)[C@H]3C[C@H](O)[C@]12C | 24.5
NCCCCNC1(c2cc3ccccc3s2)CCCCC1 | 9.28
CC(C)C(C/C=C1\CC(CO)(COC(=O)CC(C(C)C)C(C)C)OC1=O)C(C)C (stereo unspecified) | 30.6

Let us move to another entry and its TGI.
Data request: Please look up its TGI: `Cc1ccc2nc(N/N=C/c3cccc(C)n3)cc(C)c2c1`
Data returned: 30

###

Hi there, I'd appreciate the recorded TGI for every entry that follows.
# System: SK-MEL-28 melanoma
# MEASUREMENT_NOTES: NCI tumour cell line growth inhibition, 48 h

N/C(=N\c1nc2ccccc2s1)NC(=O)Nc1cccc2ccccc12 | > 100 µM
Cc1ccc(C[P+](c2ccccc2)(c2ccccc2)c2ccccc2)cc1 | 10.6 µM
Nc1nc(SCCC/C=C/I)nc2c1ncn2C1OC(CO)C(O)C1O (stereo unspecified) | > 202 µM
Cc1n(CC(=O)c2ccccc2)nc2sc(N)n[n+]12 | > 100 µM
Cc1c(O)c(=O)ccn1CCO | > 100 µM

Data request: Please look up its TGI: `COc1cc2ncn(-c3cc(OCc4ccccc4S(C)(=O)=O)c(C#N)s3)c2cc1OC`
Data returned: > 25 µM

###

# Test system: OVCAR-3 ovarian
# MEASUREMENT_NOTES: NCI tumour cell line growth inhibition, 48 h
MEASURE: TGI

Completed entries (count: 5):
O=[N+]([O-])c1cccc(-c2cc(-c3cc(Br)ccc3O)[nH]n2)c1 | 5.8 µM
CC[C@@H]1CC[C@@H]2[C@H](CC[C@]3(C)[C@@H](OS(=O)(=O)c4ccc(C)cc4)CC[C@@H]23)[C@H]1CO | > 100 µM
CCOC(=O)C1=C(c2ccccc2)N(c2ccc(OC)cc2)[C@]2(C#N)C(O)=C(Cl)C(Cl)=C(O)[C@]12C#N | 53.2 µM
CO/N=C(/COc1c(-c2ccccc2)oc2ccccc2c1=O)c1ccc(F)cc1 | > 100 µM
NC(=O)c1c2c(cc3c(=O)c4ccccc4[nH]c13)CCCC2 | > 100 µM

Dear colleague, could you please provide TGI for the compounds listed below?
1. CCOC(=O)c1cnc2cc3cccccc3n2c1=O
2. OCc1ccc(Oc2c3ccccc3nc3occc23)cc1
3. COc1cc(/C=C2\C(=O)Nc3ccccc32)cc(OC)c1OC
4. NC1=NC(c2ccc(F)cc2)C2=C(N1)c1ccc3ccccc3c1OCC2 (stereo unspecified)
5. CCOC(=O)[C@H]1Nc2ccc(Cl)cc2[C@H]2c3ccccc3O[C@H]21
6. CC(=O)Nc1ccc(-c2nnc(SCC(=O)Nc3ccccc3C)o2)cc1
7. CC(C)(NC1=NCCO1)c1ccccc1

Data returned:
1: > 100 µM; 2: 39.7 µM; 3: > 100 µM; 4: > 100 µM; 5: > 100 µM; 6: > 100 µM; 7: > 100 µM

Dear colleague, could you please provide TGI for the compounds listed below?
1. CC(=O)NC1=C(C)C(=O)c2c(nc3n2CC[C@H]3OC(C)=O)C1=O
2. O=C(O)c1ccc(C2C3C=CC(C3)C2[N+](=O)[O-])cc1 (stereo unspecified)
3. O=C1C(N=Nc2ccc(-c3nc4ccccc4[nH]3)cc2)NC(=S)N1c1ccccc1 (stereo unspecified)
4. CCCCCCCCC/C=C1\CC(CO)(COC(=O)c2ccccc2)OC1=O (stereo unspecified)
5. COc1ccc(/C=N/n2c(Cc3ccc(Cl)cc3)n[nH]c2=O)c(OC)c1
6. Cc1ccc2[nH]c(C(=O)NN3C(=O)C(C)SC34CCCCC4C)c(-c3ccccc3)c2c1 (stereo unspecified)
7. C[Si]12OCCCN(CCO1)CCO2

Data returned:
1: 1.4 µM; 2: > 100 µM; 3: > 100 µM; 4: 43.1 µM; 5: > 100 µM; 6: 31.7 µM; 7: > 100 µM

Dear colleague, could you please provide TGI for the compounds listed below?
1. Nc1c(S(=O)(=O)O)cc(Nc2cccc(S(=O)(=O)/C=C/S(=O)(=O)O)c2)c2c1C(=O)c1ccccc1C2=O
2. COc1ccc(-n2c3c(c4c(CN(C)C)c(O)c(C)cc42)CCc2ccccc2C3=O)cc1

Data returned:
1. > 100 µM
2. 97.2 µM

###

# Test system: BT-549 breast
# MEASUREMENT_NOTES: NCI tumour cell line growth inhibition, 48 h
Hi there, I'd appreciate the recorded GI50 for every entry that follows.

Completed entries (count: 5):
COc1ccc2c(c1)C(=O)c1c-2n(CCCN2CCOCC2)c(=O)c2cc([N+](=O)[O-])ccc12 | < 0.01 µM
Cc1ccc(/C(=C/C=C(C#N)C#N)Sc2ccccn2)cc1 | 2.59 µM
Cc1ccc(Oc2nc3ccccc3cc2-c2nnc(Cn3c(COc4ccccc4)nc4ccccc43)o2)cc1 | 1.77 µM
COC(=O)[C@@H]1CCCN1C(=O)[C@H]1CCCN1C(=O)[C@@H](Cc1c[nH]c2ccccc12)NC(=S)Nc1cc(C(F)(F)F)cc(C(F)(F)F)c1 | 3.52 µM
COc1cc(OC)cc(-c2cncn2-c2ccc(-c3nc4cc(OC)cc(OC)c4s3)cc2)c1 | 3.09 µM

Dear colleague, could you please provide GI50 for the molecules listed below?
1. CCC(=O)c1ccc2c(c1)N(CCCN1CCN(CCO)CC1)c1ccccc1S2
2. COc1ccc(C2=C(c3cc(OC)c(OC)c(OC)c3)C(=O)OC2)cc1OC
3. COc1cc2c(cc1OC)-c1c(c3ccc([N+](=O)[O-])cc3c(=O)n1CCCN)C2=O
4. CCOC(=O)C1=C(c2ccccc2)N(c2ccc(OC)cc2)[C@]2(C#N)C(O)=C(Cl)C(Cl)=C(O)[C@]12C#N

Data returned:
["14.9 µM", "12.1 µM", "1.79 µM", "24.2 µM"]
